Entries and their AC50
Biological target: Cytochrome P450 2C19 (Homo sapiens, UniProt P33261)
Sequence (P33261 whole entry): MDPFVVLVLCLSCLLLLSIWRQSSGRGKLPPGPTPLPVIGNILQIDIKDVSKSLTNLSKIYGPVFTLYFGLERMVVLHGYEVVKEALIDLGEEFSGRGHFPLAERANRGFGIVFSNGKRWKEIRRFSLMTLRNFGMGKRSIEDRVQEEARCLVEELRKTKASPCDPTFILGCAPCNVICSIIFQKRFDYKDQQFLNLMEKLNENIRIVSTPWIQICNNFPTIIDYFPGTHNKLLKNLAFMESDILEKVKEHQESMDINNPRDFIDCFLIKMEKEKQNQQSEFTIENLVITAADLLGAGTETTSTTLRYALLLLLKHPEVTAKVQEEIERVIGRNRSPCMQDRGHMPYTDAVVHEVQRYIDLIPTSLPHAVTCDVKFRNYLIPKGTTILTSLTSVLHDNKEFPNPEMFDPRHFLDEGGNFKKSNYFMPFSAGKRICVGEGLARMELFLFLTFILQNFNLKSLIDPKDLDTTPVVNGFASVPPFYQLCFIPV
Assay: Cytochrome panel assay with activity outcomes. Panel member name: p450-cyp2c19 Compounds with AC50 equal or less than 10 uM are considered active
Format: functional
Details: read-out: AC50
Activity calls are given as the source filed them.

{"compound": "CNc1oc(C)nc1S(=O)(=O)c1ccc(C)cc1", "targetOrTestSystem": "Cytochrome P450 2C19 (Homo sapiens, UniProt P33261)", "AC50": "31.6 µM (inconclusive)"}
{"compound": "COc1cc(N)c(Cl)cc1C(=O)N[C@H]1CCN(CCCOc2ccc(F)cc2)C[C@@H]1OC", "targetOrTestSystem": "Cytochrome P450 2C19 (Homo sapiens, UniProt P33261)", "AC50": "0.794 µM (active)"}
{"compound": "COc1ccc(/C=C2\\N=C(c3c(-c4ccccc4)noc3C)OC2=O)cc1OC", "targetOrTestSystem": "Cytochrome P450 2C19 (Homo sapiens, UniProt P33261)", "AC50": "28.2 µM (inconclusive)"}
{"compound": "CCCn1nc2cc(C(=O)NCc3ccc(C)cc3)ccc2c1OC", "targetOrTestSystem": "Cytochrome P450 2C19 (Homo sapiens, UniProt P33261)", "AC50": "22.4 µM (inconclusive)"}
{"compound": "CCCc1cc2c(n1Cc1ccc(OC)cc1)C(C)C1CN(C(=O)c3ccccc3)C(C)(C(=O)OC)C21 (centres undefined)", "targetOrTestSystem": "Cytochrome P450 2C19 (Homo sapiens, UniProt P33261)", "AC50": "0.00631 µM (inconclusive)"}
{"compound": "CC(=O)c1c(/N=C/N(C)C)nc(C)nc1-c1ccccc1", "targetOrTestSystem": "Cytochrome P450 2C19 (Homo sapiens, UniProt P33261)", "AC50": "25.1 µM (inconclusive)"}
{"compound": "CCc1c(C)c(C#N)c2nc3ccccc3n2c1N1CCN(c2cc(C)ccn2)CC1", "targetOrTestSystem": "Cytochrome P450 2C19 (Homo sapiens, UniProt P33261)", "AC50": "10 µM (inconclusive)"}
{"compound": "COC(=O)Nc1nc2cc(SC(C)C)ccc2[nH]1", "targetOrTestSystem": "Cytochrome P450 2C19 (Homo sapiens, UniProt P33261)", "AC50": "10 µM (inconclusive)"}
{"compound": "CC(C)[C@@]1(NC(=O)[C@@H]2C[C@H]3c4cccc5[nH]cc(c45)C[C@@H]3N(C)C2)O[C@]2(O)[C@H]3CCCN3C(=O)CN2C1=O", "targetOrTestSystem": "Cytochrome P450 2C19 (Homo sapiens, UniProt P33261)", "AC50": "5.01 µM (inconclusive)"}
{"compound": "Cc1ccc(/C=N/NC(=O)Cn2nccc2C)o1", "targetOrTestSystem": "Cytochrome P450 2C19 (Homo sapiens, UniProt P33261)", "AC50": "11.2 µM (inconclusive)"}
{"compound": "C/C(CCC(=O)OC[C@@H]1O[C@H](C#Cc2ccccc2)C=C[C@@H]1Oc1ccc(C)cc1)=N/OC[C@@H](O)[C@H]1O[C@H]2OC(C)(C)O[C@H]2[C@@H]1O", "targetOrTestSystem": "Cytochrome P450 2C19 (Homo sapiens, UniProt P33261)", "AC50": "6.31 µM (inconclusive)"}
{"compound": "Cn1c(=O)c2cn(-c3ccccc3)cc2n(C)c1=O", "targetOrTestSystem": "Cytochrome P450 2C19 (Homo sapiens, UniProt P33261)", "AC50": "17.8 µM (inconclusive)"}
{"compound": "O=C(CCNNC(=O)c1ccncc1)NCc1ccccc1 [NIALAMIDE]", "targetOrTestSystem": "Cytochrome P450 2C19 (Homo sapiens, UniProt P33261)", "AC50": "10 µM (inconclusive)"}
{"compound": "O=C(Nc1cccc(C(F)(F)F)c1)c1cccn(Cc2ccc3c(c2)OC(F)(F)O3)c1=O", "targetOrTestSystem": "Cytochrome P450 2C19 (Homo sapiens, UniProt P33261)", "AC50": "2.24 µM (inconclusive)"}
{"compound": "CC[C@H]1C2=C3C(CC[C@H]4C(OCc5ccc(F)cc5C(F)(F)F)OC[C@](C)([C@@H]34)N(C(=O)OC(C)(C)C)C2)C(COC(C)=O)C1COC(C)=O (some centres undefined)", "targetOrTestSystem": "Cytochrome P450 2C19 (Homo sapiens, UniProt P33261)", "AC50": "15.8 µM (inconclusive)"}
{"compound": "CN(C)c1nc(-c2cccc(NS(C)(=O)=O)c2)nc2ccccc12", "targetOrTestSystem": "Cytochrome P450 2C19 (Homo sapiens, UniProt P33261)", "AC50": "20 µM (inconclusive)"}
{"compound": "CCCc1cc2c(n1Cc1ccc(C)cc1)C(C)C1CN(C(=O)c3ccccc3)C(C)(C(=O)OC)C21 (centres undefined)", "targetOrTestSystem": "Cytochrome P450 2C19 (Homo sapiens, UniProt P33261)", "AC50": "25.1 µM (inconclusive)"}
{"compound": "c1ccc(-c2ccc(N3CC[C@@]4(CCCNC4)C3)cc2)cc1", "targetOrTestSystem": "Cytochrome P450 2C19 (Homo sapiens, UniProt P33261)", "AC50": "20 µM (inconclusive)"}
{"compound": "O=C(c1ccco1)N1CCC2(CC1)CN(c1cccc(-c3ccccc3)c1)C2", "targetOrTestSystem": "Cytochrome P450 2C19 (Homo sapiens, UniProt P33261)", "AC50": "3.98 µM (inconclusive)"}
